Experiment: protein stability index of a GFP-peptide fusion (yeast GPS) (PSI 1-4); higher = more stable; sorted into four equal gates, so the index is relative within each strain
Details: pdr5∆
Given measured protein stability index, output satisfied if it is greater than or equal to 3 and not satisfied if not.

- Sequence Code: "DTDNECVAAWGVCNHAF [HRT1]"
  Discrete Label: "satisfied"
- Sequence Code: "EGRLYQVEYALESISHA [PRE9]"
  Discrete Label: "not satisfied"
- Sequence Code: "KVPDISSDGQLKKFRES [BRR2]"
  Discrete Label: "satisfied"
- Sequence Code: "KKLLEVHDIFSKIFNES [CDC53]"
  Discrete Label: "not satisfied"
- Sequence Code: "ATIIGIISTAIADSTHV [ECM29]"
  Discrete Label: "not satisfied"
- Sequence Code: "TQTSKEQEIENNGLPMK [ITC1]"
  Discrete Label: "satisfied"
- Sequence Code: "DRIIHTWRTQLAASEIG [ECM29]"
  Discrete Label: "not satisfied"

----------
Listed below: protein stability index values for each entry.
Assay: protein stability index of a GFP-peptide fusion (yeast GPS) (PSI 1-4); higher = more stable; sorted into four equal gates, so the index is relative within each strain
Details: pdr5∆

- Sequence Code: "VDPASAPNHSPEIDNLD [RRP6]"
  protein stability index: 2.98
- Sequence Code: "GFYQIKKIVDSKKLNLK [YMR129W/POM152]"
  protein stability index: 2.98
- Sequence Code: "TIGPYRARKDRMRVSVL [SSN3]"
  protein stability index: 2.99

----------
Experiment: protein stability index of a GFP-peptide fusion (yeast GPS) (PSI 1-4); higher = more stable; sorted into four equal gates, so the index is relative within each strain
Conditions: doa10∆

- Sequence Code: "WNLEKWREIIEKVRDYE [IRR1]"
  protein stability index: 3.06
- Sequence Code: "FVVPTFGQDVSPMINST [SNM1]"
  protein stability index: 2.94
- Sequence Code: "QNPMRDLKIEKLVLNIS [RPL11A]"
  protein stability index: 3.04
- Sequence Code: "VSEGTRAVTKYSSSTQA [HTB1]"
  protein stability index: 2.99

----------
Experiment: protein stability index of a GFP-peptide fusion (yeast GPS) (PSI 1-4); higher = more stable; sorted into four equal gates, so the index is relative within each strain
Settings: san1∆
Recorded measurements of protein stability index, one per entry

- Sequence Code: "FNYGKLPLPPSVEWMKV [SIN4]"
  protein stability index: 2.93
- Sequence Code: "HDSILHSRILPKKALKV [RRP43]"
  protein stability index: 1.68
- Sequence Code: "QLKDMQTIEMITQIVEK [SRB8]"
  protein stability index: 2.94
- Sequence Code: "LDGKFSLFHTAVSVANG [RPN2]"
  protein stability index: 2.45
- Sequence Code: "VQDKDTLSNAERAKNVN [GAL11]"
  protein stability index: 2.71
- Sequence Code: "ELPLVITMPATNGKPDM [ARP7]"
  protein stability index: 2.9
- Sequence Code: "QQQQQNTNNNDTIATSA [GAL11]"
  protein stability index: 2.48
- Sequence Code: "VARFLHFNGIRRLDALV [ITC1]"
  protein stability index: 3.41
- Sequence Code: "YHGISKNDNIKKSVNKL [POP6]"
  protein stability index: 2.77
- Sequence Code: "SASLHLNYGVYLNGTLI [RET1]"
  protein stability index: 3.09
- Sequence Code: "ISDDDDSALRYSILGDR [POP4]"
  protein stability index: 2.61
- Sequence Code: "FNELCDPESRTQSYNNQ [POP1]"
  protein stability index: 2.95
- Sequence Code: "QKDQDGRIPLHWSVSFQ [NAS6]"
  protein stability index: 3
- Sequence Code: "ILRNGIDYLQRNDKTLE [POP1]"
  protein stability index: 2.95
- Sequence Code: "HTKFEVAIGLNGKIWVK [RRP40]"
  protein stability index: 2.39
- Sequence Code: "ALNKISKYYPGVIIKVE [SNU114]"
  protein stability index: 1.9
- Sequence Code: "KDNVEHLVMRAISLGLL [RPN9]"
  protein stability index: 2.48
- Sequence Code: "TKGMITNLQRNVDRLYK [NUT2]"
  protein stability index: 2.69
- Sequence Code: "LQYLDKHIKNLEDDSLL [RPN12]"
  protein stability index: 3.35
- Sequence Code: "CVAAWGVCNHAFHLHCI [HRT1]"
  protein stability index: 1.52
- Sequence Code: "VGDEFKGYVFKISGGND [RPS6A]"
  protein stability index: 3.06
- Sequence Code: "KKTVAGGAYTVSTAAAA [RPL43A]"
  protein stability index: 2.15
- Sequence Code: "TAETGYIQRRLVKALED [RPO21]"
  protein stability index: 2.69
- Sequence Code: "SLPEELKKRYDLSYNFN [YMR129W/POM152]"
  protein stability index: 2.9
- Sequence Code: "ASRNVWSFYNGNVLIND [SNU114]"
  protein stability index: 3.5
- Sequence Code: "EGRLYQVEYALESISHA [PRE9]"
  protein stability index: 1.98
- Sequence Code: "LYGTAIGARSQGAKTYL [PRE5]"
  protein stability index: 3.04
- Sequence Code: "GLSMLAKLKELAEDVDD [RPC31]"
  protein stability index: 2.87
- Sequence Code: "FYDIRSLLERHIPRLIP [YJL039C/NUP192]"
  protein stability index: 2.2
- Sequence Code: "PFFSSNTSSLQSFQNPF [YIL149C/MLP2]"
  protein stability index: 2.69
- Sequence Code: "KCFDDIEPHIFDQLIEW [YCG1]"
  protein stability index: 3.31
- Sequence Code: "MGQGLCNNINKGLKEND [BRR2]"
  protein stability index: 3.2
- Sequence Code: "FHVGFIAKIKKVCECVC [RPO21]"
  protein stability index: 1.43
- Sequence Code: "KLILHAIHIFESYYNWK [YML103C/NUP188]"
  protein stability index: 1.58
- Sequence Code: "RLKGDIFCVGSGQTFAY [PRE2]"
  protein stability index: 2.25
- Sequence Code: "VIEAKINHEDGFIETTE [RPN3]"
  protein stability index: 1.3
- Sequence Code: "ELAGGNASLTIEDEDEP [SMC1]"
  protein stability index: 3
- Sequence Code: "TQAKKLYHHTTKTILSG [SRP72]"
  protein stability index: 2.49
- Sequence Code: "LIENCKQVLDVDPVYKD [FAS2]"
  protein stability index: 3.33
- Sequence Code: "VADAKQLGEWAGLGKID [RPS12]"
  protein stability index: 3.46
- Sequence Code: "LISKPAKKNNFIEDLAP [UBP6]"
  protein stability index: 2.73
- Sequence Code: "NETNDKKRNPSKQNGSK [PRP28]"
  protein stability index: 3.02
- Sequence Code: "IETVMTQEQFVKRRRDM [SRB4]"
  protein stability index: 2.92
- Sequence Code: "PVSCIIQNDEEYDTPAL [PRP8]"
  protein stability index: 1.92
- Sequence Code: "VRYGSSLRRQVKKLEIQ [RPL43A]"
  protein stability index: 2.55
- Sequence Code: "VSIDIEEPQLDLLDDVL [MTW1]"
  protein stability index: 3.24
- Sequence Code: "TTAEPKAKRAKTGSAST [TAF14]"
  protein stability index: 3.34
- Sequence Code: "GIDLAYNMYDAYGNWFN [PRP8]"
  protein stability index: 3.05
- Sequence Code: "PYNLNLFPNELYNVMGI [RPC31]"
  protein stability index: 2.71
